Sourced from patent US11254686B1

# target under test: adenosine A2A receptor (Homo sapiens (Human), UniProt P29274)
# Sequence (P29274 whole entry): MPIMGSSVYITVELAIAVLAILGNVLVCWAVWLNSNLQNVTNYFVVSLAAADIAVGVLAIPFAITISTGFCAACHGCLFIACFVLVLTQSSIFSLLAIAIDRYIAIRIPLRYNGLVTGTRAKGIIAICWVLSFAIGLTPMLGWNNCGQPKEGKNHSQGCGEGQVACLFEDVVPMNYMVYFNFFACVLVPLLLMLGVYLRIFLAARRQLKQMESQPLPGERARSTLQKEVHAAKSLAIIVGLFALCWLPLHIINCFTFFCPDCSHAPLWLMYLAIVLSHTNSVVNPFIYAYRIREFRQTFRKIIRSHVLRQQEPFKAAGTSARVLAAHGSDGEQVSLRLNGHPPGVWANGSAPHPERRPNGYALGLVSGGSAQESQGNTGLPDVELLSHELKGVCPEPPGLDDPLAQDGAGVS
# test method notes: Adenosine receptor activity assay (Table 1), A2A activity
# Type: biochemical
# run parameters: cAMP; read-out: Ave A2A cAMP IC50
pIC50: −log10 of the molar value.
quantity measured: pIC50

Need pIC50, item C[C@H](Nc1nc(C(=O)N2CC(NC(=O)Nc3ccccc3)C2)c2sccc2n1)c1cncc(F)c1 7.30 to 8.00

Need pIC50, item Cc1cc(C(=O)NC2CN(C(=O)c3nc(N[C@@H](C)c4cncc(F)c4)nc4ccsc34)C2)c(C)o1 7.30 to 8.00

Need pIC50, item C[C@H](Nc1nc(C(=O)N2CC(NC(=O)C3(C(F)(F)F)CC3)C2)c2sccc2n1)c1cncc(F)c1 > 8.00

Need pIC50, item C[C@H](Nc1nc(C(=O)N2CC(NC(=O)C34CC5CC(CC(C5)C3)C4)C2)c2sccc2n1)c1cncc(F)c1 > 8.00

Need pIC50, item C[C@H](Nc1nc(C(=O)N2CC(NC(=O)C3CC(C)(C)C3)C2)c2sccc2n1)c1cncc(F)c1 > 8.00

Need pIC50, item C[C@H](Nc1nc(C(=O)N2CC(NC(=O)C3CCC(F)(F)CC3)C2)c2sccc2n1)c1cncc(F)c1 7.30 to 8.00

Need pIC50, item C[C@H](Nc1nc(C(=O)N2CC(NC(=O)[C@H]3CC[C@H](C)CC3)C2)c2sccc2n1)c1cncc(F)c1 7.30 to 8.00

Need pIC50, item C[C@H](Nc1nc(C(=O)N2CC(NC(=O)C3(C#N)CC3)C2)c2sccc2n1)c1cncc(F)c1 7.00 to 7.30

Need pIC50, item C[C@H](Nc1nc(C(=O)N2CC(NC(=O)c3cccc(F)c3)C2)c2sccc2n1)c1cncc(F)c1 > 8.00

Need pIC50, item C[C@H](Nc1nc(C(=O)N2CC(NC(=O)c3ccc(F)c(F)c3)C2)c2sccc2n1)c1cncc(F)c1 7.30 to 8.00

Need pIC50, item C[C@H](Nc1nc(C(=O)N2CC(NC(=O)C(C)(C)C)C2)c2sccc2n1)c1cncc(Cl)c1 > 8.00

Need pIC50, item C[C@H](Nc1nc(C(=O)N2CC(NC(=O)OC3CCCC3)C2)c2sccc2n1)c1cncc(F)c1 7.30 to 8.00

Need pIC50, item C[C@H](Nc1nc(C(=O)N2CC(NC(=O)C3COC3)C2)c2sccc2n1)c1cncc(F)c1 7.00 to 7.30

Need pIC50, item C[C@H](Nc1nc(C(=O)N2CC(NC(=O)C3CCCC3)C2)c2sccc2n1)c1cncc(F)c1 > 8.00

Need pIC50, item C[C@H](Nc1nc(C(=O)N2CC(NC(=O)C3(C)CCOC3)C2)c2sccc2n1)c1cncc(F)c1 (stereo partly drawn) > 8.00

----------
# target under test: adenosine A2A receptor (Homo sapiens (Human), UniProt P29274)
# test method notes: Adenosine receptor activity assay (Table 1), A2A activity
# Assay type: biochemical
# run parameters: read-out: Ave A2A cAMP IC50
Exercise: for every item that follows, state its recorded IC50.

Need IC50, item C[C@H](Nc1nc(C(=O)N2CC(O)C2)c2sccc2n1)c1ccccn1 [Example Z100] 100 to 500 nM

Need IC50, item C[C@H](Nc1nc(C(=O)NCCN2CCCC2)c2sccc2n1)c1ccccn1 [Example Z356] > 500 nM

Need IC50, item CC(C)NC(=O)N1CCN(C(=O)c2nc(N[C@@H](C)c3cncc(F)c3)nc3ccsc23)C1 [Example Z587] 100 to 500 nM

Need IC50, item CC(C)(C)OC(=O)N1CC(NC(=O)c2nc(NCc3cncc(F)c3)nc3ccsc23)C1 [Example Z178] 100 to 500 nM

Need IC50, item CCC(NC(=O)c1nc(N[C@@H](C)c2cccnc2)nc2ccsc12)c1cccnc1 (some centres unmarked) [Example Z24] > 500 nM

Need IC50, item CCO[C@H]1CCN(C(=O)c2nc(N[C@@H](C)c3ccccn3)nc3ccsc23)C1 [Example Z442] 100 to 500 nM

Need IC50, item C[C@H](Nc1nc(C(=O)N2CC[C@@H](O)C2)c2sc(C(F)(F)F)cc2n1)c1ccccn1 [Example Z349] > 500 nM

Need IC50, item C[C@H](Nc1nc(C(=O)N2CCC[C@@H]2C)c2sccc2n1)c1cccnc1 [Example Z36] 100 to 500 nM

----------
Exercise: for every item that follows, state its recorded pIC50.
# target under test: adenosine A2A receptor (Homo sapiens (Human))
# test method notes: Adenosine receptor activity assay (Table 1), A2A activity
# Format: biochemical
# run parameters: read-out: Ave A2A cAMP IC50
pIC50: −log10 of the molar value.

Need pIC50, item C[C@H](Nc1nc(C(=O)NCCc2ccncc2)c2sccc2n1)c1cncc(F)c1 < 6.30

Need pIC50, item C[C@H](Nc1nc(C(=O)N2CC[C@@H](F)C2)c2sccc2n1)c1cncc(F)c1 6.30 to 7.00

Need pIC50, item C[C@@H]1CCN(C(=O)c2nc(N[C@@H](C)c3cccnc3)nc3ccsc23)C1 6.30 to 7.00

Need pIC50, item COC[C@@H]1CCN1C(=O)c1nc(N[C@@H](C)c2cncc(F)c2)nc2ccsc12 < 6.30

Need pIC50, item C[C@H](Nc1nc(C(=O)N(C)CCc2ccc(O)cc2)c2sccc2n1)c1cncc(F)c1 < 6.30

Need pIC50, item CO[C@H](C)CNC(=O)c1nc(N[C@@H](C)c2cccnc2)nc2cc(C)sc12 < 6.30

Need pIC50, item C[C@H](Nc1nc(C(=O)NCC2CCOCC2)c2sccc2n1)c1cncc(F)c1 7.00 to 7.30

Need pIC50, item COCCC(=O)NC1CN(C(=O)c2nc(N[C@@H](C)c3cncc(F)c3)nc3cc(C)sc23)C1 7.30 to 8.00

Need pIC50, item Cc1cc2nc(N[C@@H](C)c3cncc(F)c3)nc(C(=O)N3CC(CN(C)C)C3)c2s1 7.00 to 7.30

Need pIC50, item CC(=O)N[C@@H]1CCN(C(=O)c2nc(N[C@@H](C)c3cccnc3)nc3ccsc23)C1 < 6.30

Need pIC50, item CC1CCN1C(=O)c1nc(N[C@@H](C)c2ccccn2)nc2ccsc12 (stereo partly shown) 7.30 to 8.00

Need pIC50, item CNc1cc2nc(N[C@@H](C)c3cccnc3)nc(C(=O)N3CCC3)c2s1 6.30 to 7.00

Need pIC50, item Cc1cc2nc(N[C@@H](C)c3cncc(F)c3)nc(C(=O)N3CC(NC(=O)C4CC4)C3)c2s1 7.30 to 8.00

Need pIC50, item CNc1cc2nc(N[C@@H](C)c3cncc(F)c3)nc(C(=O)N3CCCC3)c2s1 6.30 to 7.00

Need pIC50, item CNc1cc2nc(N[C@@H](C)c3cncc(F)c3)nc(C(=O)N3CC[C@H](O)C3)c2s1 < 6.30

Need pIC50, item CO[C@@H]1CCN(C(=O)c2nc(N[C@@H](C)c3ccccn3)nc3c(C)csc23)C1 7.30 to 8.00

----------
# target under test: adenosine A3 receptor (Homo sapiens (Human))
# Sequence (P0DMS8 whole entry): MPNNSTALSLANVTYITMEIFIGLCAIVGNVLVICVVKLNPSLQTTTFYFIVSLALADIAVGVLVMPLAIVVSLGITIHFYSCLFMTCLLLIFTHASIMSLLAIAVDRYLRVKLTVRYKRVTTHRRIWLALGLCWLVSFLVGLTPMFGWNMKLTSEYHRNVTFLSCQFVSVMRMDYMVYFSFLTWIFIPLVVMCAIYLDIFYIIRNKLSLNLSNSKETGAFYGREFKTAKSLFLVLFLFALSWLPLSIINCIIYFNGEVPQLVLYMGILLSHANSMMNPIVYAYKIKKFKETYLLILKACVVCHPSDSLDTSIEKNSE
# test method notes: Adenosine receptor activity assay (Table 1), A3 cAMP
# Assay type: cell-based
pIC50: −log10 of the molar value.
quantity measured: pIC50

Need pIC50, item C[C@H](Nc1nc(C(=O)N2CCC2)c2sccc2n1)c1cncc(Cl)c1 < 6.30

Need pIC50, item C[C@H](O)CNC(=O)c1nc(N[C@@H](C)c2cncc(F)c2)nc2cc(C(F)(F)F)sc12 7.00 to 7.30

Need pIC50, item C[C@H](Nc1nc(C(=O)N2CCC[C@@H]2C)c2sccc2n1)c1cncc(F)c1 < 6.30

Need pIC50, item C[C@H](Nc1nc(C(=O)N2CC[C@H](O)C2)c2sc(C(F)(F)F)cc2n1)c1cccnc1 < 6.30

----------
# target under test: adenosine A2A receptor (Homo sapiens (Human), UniProt P29274)
# test method notes: Adenosine receptor activity assay (Table 1), A2A activity
# Assay type: biochemical
# run parameters: read-out: Ave A2A cAMP IC50
quantity measured: IC50

Need IC50, item C[C@H](Nc1nc(C(=O)N2CC[C@@H](O)C2)c2sc(N)cc2n1)c1cncc(F)c1 100 to 500 nM

Need IC50, item O=C(c1nc(NCc2cncc(C(F)(F)F)c2)nc2ccsc12)N1CCC1 > 500 nM

Need IC50, item C[C@H](Nc1nc(C(=O)N2CCC[C@H]2C)c2sccc2n1)c1cncc(F)c1 100 to 500 nM

Need IC50, item C[C@H](Nc1nc(C(=O)NC2CCCC2)c2sccc2n1)c1ccccn1 10 to 50 nM

Need IC50, item C[C@H](Nc1nc(C(=O)NCCc2ccc(O)cc2)c2sccc2n1)c1cncc(F)c1 100 to 500 nM

Need IC50, item Cc1cc2nc(N[C@@H](C)c3cccnc3)nc(C(=O)NCC[C@H]3CCNC3)c2s1 > 500 nM

Need IC50, item C[C@H](Nc1nc(C(=O)N2CC(C(=O)NOC(C)(C)C)C2)c2sccc2n1)c1cncc(F)c1 50 to 100 nM

Need IC50, item O=C(c1nc(NCc2cnccn2)nc2ccsc12)N1CC[C@H](O)C1 > 500 nM
